In this section, each of the binders is paired with its reported mCrhr1 Luciferase Reporter Assay IC50.
- Measured On: T1, corticotropin-releasing hormone (CRH) peptide (human and mouse (same sequence), not fully specified)
- T1 peptide: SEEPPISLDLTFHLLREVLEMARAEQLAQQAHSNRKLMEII
- Experimental Details: cell-based or functional assay
Reply numerically in nM, unit not repeated.

[[record]]
binder = "PR302055 (antibody, human IgG1, kappa, V domains shown, humanized variant of PR301777) VH: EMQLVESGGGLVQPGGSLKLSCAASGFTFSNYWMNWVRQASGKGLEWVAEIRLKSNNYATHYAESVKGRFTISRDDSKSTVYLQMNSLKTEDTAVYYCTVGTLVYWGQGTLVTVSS VL: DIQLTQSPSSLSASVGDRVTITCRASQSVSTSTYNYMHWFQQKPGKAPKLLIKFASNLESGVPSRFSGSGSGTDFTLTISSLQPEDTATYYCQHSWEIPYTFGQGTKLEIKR"
unit_abbreviation = "nM"
assay_value = 4.67


Query binder follows.
Look up mCrhr1 Luciferase Reporter Assay IC50 of PR302048 (antibody, human IgG1, kappa, V domains shown, humanized variant of PR301777) VH: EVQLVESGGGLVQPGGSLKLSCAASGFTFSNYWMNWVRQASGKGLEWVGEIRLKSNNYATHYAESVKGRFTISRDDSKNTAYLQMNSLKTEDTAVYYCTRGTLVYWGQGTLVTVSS VL: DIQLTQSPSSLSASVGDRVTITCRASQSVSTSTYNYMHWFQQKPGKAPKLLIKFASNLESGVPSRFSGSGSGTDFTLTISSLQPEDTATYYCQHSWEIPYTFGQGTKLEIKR and report it.
33.3
